Source of measurements: patent US20210347865A1

EXPERIMENTAL_TARGET: T1, native human ApoC3 (human, UniProt P02656 21-99, biotinylated in the captured-antigen assays (Tables 6 and 8); sites not stated)
T1 construct: also called nhuApoC3; native huApoC3
T1 sequence (P02656 21-99): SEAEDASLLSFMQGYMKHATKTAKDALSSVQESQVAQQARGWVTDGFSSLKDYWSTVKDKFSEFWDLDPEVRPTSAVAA
ASSAY_PROTOCOL: SPR, antigen immobilized on CM5 chip, IgG as analyte, pH 7.4
MEASURED_METRIC: koff (s⁻¹)

[
  {
    "BINDER": "29G11 IgG (antibody, V domains shown) VH: QLQLVESGGGLVQPGGSLRLSCAASGFTFGTYSMRWVRQVPRKALEWVSSISTDGGGTAYRDSVKGRFTISRDNAKNTLYLQMNNLKPEDTAIYYCVIAGYSDWGQGTQVTVSS VL: DVVLTQTPGSLSVVPGGSASISCKASQSLVYSDGKTYLYWLRQKPGQSPQRLIYQVSNRPSGVPDRFTGSGSGTDFTLKISGVKAEDAGVYYCAQDTYSTKTFGQGTKLEIK",
    "TEST_VALUE": "6.3e-05"
  },
  {
    "BINDER": "30D10 IgG (antibody, V domains shown) VH: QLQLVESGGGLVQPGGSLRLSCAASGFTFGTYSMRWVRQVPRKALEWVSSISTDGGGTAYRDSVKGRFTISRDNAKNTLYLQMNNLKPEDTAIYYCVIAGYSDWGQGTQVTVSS VL: DVVLTQTPGSLSVVPGESASISCTASQSLRHSDGRTYLYWLRQKPGQSPQRLIKRVSTRDPGVPDRFTGSGSGTDFTLKISGVRAEDAGVYYCAQGTYYPLTFGQGTKVELK",
    "TEST_VALUE": 0.000231
  }
]
